- method-summary: Cytotoxicity in the TK6 assay (CE, RS, RSG, RTG)
- measurement-conditions: human, TK6 cells with rat liver S9 mix, CE3 (%), cell viability on Day 3, Short treatment, +S9 mix, dose 1821 μg/mL
metric-name: viability at 4 h, 1821 μg/mL (%)
One number for each entry, in %.

Query: Entry `Nc1cc([N+](=O)[O-])ccc1C(=O)O` has what viability at 4 h, 1821 μg/mL?
Response: 44.6

###

- method-summary: Cytotoxicity in the TK6 assay (CE, RS, RSG, RTG)
- measurement-conditions: human, TK6 cells with rat liver S9 mix, CE0 (%), cell viability on Day 0, Short treatment, +S9 mix, dose 1138 μg/mL
metric-name: viability at 4 h, 1138 μg/mL (%)
Give bare numbers, in %.

Query: State the recorded viability at 4 h, 1138 μg/mL for this entry: `Nc1cc([N+](=O)[O-])ccc1C(=O)O`
Response: 108

###

- Test system: human lymphoblastoid TK6 cells, thymidine kinase gene
metric-name: TK mutation assay, Without S9

molecule	target-of-assay	TK mutation assay, Without S9
O=[N+]([O-])c1cc(N(CCO)CCO)ccc1NCCO	human lymphoblastoid TK6 cells, thymidine kinase gene	Neg
Cc1cc(N)ccc1N	human lymphoblastoid TK6 cells, thymidine kinase gene	Neg
IC(I)I [Iodoform]	human lymphoblastoid TK6 cells, thymidine kinase gene	Neg
CC(=O)Nc1ccc(C(=O)CCl)cc1 [4-(Chloroacetyl)-acetanilide, 4-(Chloroacetyl)acetanilide]	human lymphoblastoid TK6 cells, thymidine kinase gene	Pos

Consider the record given below.
Query: Recorded TK mutation assay, Without S9 for Oc1cccc2cccnc12 [8-Hydroxyquinoline] with human lymphoblastoid TK6 cells, thymidine kinase gene, please?
Response: Neg

###

- Tested on: human lymphoblastoid TK6 cells, thymidine kinase gene
- method-summary: TK gene mutation assay (TK6 assay, OECD TG490)
- measurement-conditions: short-term 4 h, without S9
metric-name: TK mutation assay, Without S9

Here are 4 molecules together with their reported answers.
molecule	target-of-assay	TK mutation assay, Without S9
Nc1ccc([N+](=O)[O-])cc1N [4-Nitro-o-phenylenediamine]	human lymphoblastoid TK6 cells, thymidine kinase gene	Pos
O=[N+]([O-])c1cccc2ccccc12 [1-Nitronaphthalene]	human lymphoblastoid TK6 cells, thymidine kinase gene	Pos
Nc1cc([N+](=O)[O-])ccc1C(=O)O [4-Nitroanthranilic acid]	human lymphoblastoid TK6 cells, thymidine kinase gene	Neg
Cl.ClCc1ccccn1 [2-(Chloromethyl) pyridine HCl]	human lymphoblastoid TK6 cells, thymidine kinase gene	Pos

Query: Which TK mutation assay, Without S9 reading was recorded for the molecule Cc1c(N)cccc1N [2,6-Diaminotoluene] ?
Response: Neg

###

- method-summary: Cytotoxicity in the TK6 assay (CE, RS, RSG, RTG)
- measurement-conditions: human, TK6 cells without S9 mix, CE3 (%), cell viability on Day 3, 24 h treatment, -S9 mix, 1821.4 μg/mL
metric-name: viability at 24 h, 1821.4 μg/mL (%)
One number for each entry, in %.

Query: Look at this compound and give its reported viability at 24 h, 1821.4 μg/mL. Nc1cc([N+](=O)[O-])ccc1C(=O)O [4-Nitroanthranilic acid]
Response: 43.3

###

- method-summary: Cytotoxicity in the TK6 assay (CE, RS, RSG, RTG)
- measurement-conditions: human, TK6 cells without S9 mix, CE0 (%), cell viability on Day 0, Short treatment, -S9 mix, dose 277.90 μg/mL
metric-name: viability at 4 h, 277.9 μg/mL (%)
Numbers only, in %.

Query: Can you look up the measured viability at 4 h, 277.9 μg/mL of `Nc1cc([N+](=O)[O-])ccc1C(=O)O` for me?
Response: 77
